experiment: Selectivity index, ratio of IC50 for cytotoxicity against human PBMC by MTT assay to EC50 for antiproliferative activity against human PBMC by VPD450 staining based flow cytometry
Where a SMILES comes first, the peptide text is derived from it. [ ]: non-standard residue; d: D form. The star is where a group is joined. Mycophenolyl = COc1c(C)c2c(c(O)c1C/C=C(\C)CCC(=O)*)C(=O)OC2; Arg(NO2) = N=C(NCCC[C@H](N)C(=O)O)N[N+](=O)[O-]; βAla = NCCC(=O)O
measuredMetric: Ratio IC50/EC50

Answered cases to consult:
>>> reading("CC[C@H](C)[C@H](N)C(=O)NCCCC[C@H](NC(=O)[C@@H]1CCCN1C(=O)[C@H](CCCNC(=N)N[N+](=O)[O-])NC(=O)CC/C(C)=C/Cc1c(O)c2c(c(C)c1OC)COC2=O)C(=O)N[C@H](C(=O)OC)[C@@H](C)O (Mycophenolyl-[Arg(NO2)]PK(Ile)T-OMe)")
3.5
>>> reading("COC(=O)C(NC(=O)CC/C(C)=C/Cc1c(O)c2c(c(C)c1OC)COC2=O)C(=O)OC")
0.3
>>> reading("COC(=O)[C@H](CCCNC(=N)N[N+](=O)[O-])NC(=O)CC/C(C)=C/Cc1c(O)c2c(c(C)c1OC)COC2=O")
0.2
>>> reading("COC(=O)[C@@H](NC(=O)[C@H](CCCCN)NC(=O)[C@@H]1CCCN1C(=O)[C@H](CCCNC(=N)N[N+](=O)[O-])NC(=O)CC/C(C)=C/Cc1c(O)c2c(c(C)c1OC)COC2=O)[C@@H](C)O (Mycophenolyl-[Arg(NO2)]PKT-OMe)")
18
>>> reading("COc1c(C)c2c(c(O)c1C/C=C(\\C)CCC(=O)N[C@@H](CCCNC(=N)N[N+](=O)[O-])C(=O)O)C(=O)OC2")
2.2

QUERY: Look up Ratio IC50/EC50: COC(=O)[C@H](CCCNC(=N)N[N+](=O)[O-])NC(=O)[C@@H]1CCCN1C(=O)[C@H](CCCCNC(=O)[C@@H](N)CC(C)C)NC(=O)[C@@H](NC(=O)CC/C(C)=C/Cc1c(O)c2c(c(C)c1OC)COC2=O)[C@@H](C)O (Mycophenolyl-TK(Leu)P[Arg(NO2)]-OMe)
RESULT: 1.2

QUERY: Which value of Ratio IC50/EC50 has been reported for COC(=O)[C@H](CCCNC(=N)N[N+](=O)[O-])NC(=O)[C@@H]1CCCN1C(=O)[C@H](CCCCNC(=O)CCN)NC(=O)[C@@H](NC(=O)CC/C(C)=C/Cc1c(O)c2c(c(C)c1OC)COC2=O)[C@@H](C)O (Mycophenolyl-TK(βAla)P[Arg(NO2)]-OMe) in the records?
RESULT: 2.5

QUERY: Ratio IC50/EC50 lookup needed for COC(=O)[C@H](CCCNC(=N)N[N+](=O)[O-])NC(=O)[C@@H]1CCCN1C(=O)[C@H](CCCCNC(=O)[C@H](C)N)NC(=O)[C@@H](NC(=O)CC/C(C)=C/Cc1c(O)c2c(c(C)c1OC)COC2=O)[C@@H](C)O (Mycophenolyl-TK(Ala)P[Arg(NO2)]-OMe) , thanks.
RESULT: 2.2

QUERY: Name the recorded Ratio IC50/EC50 for COc1c(C)c2c(c(O)c1C/C=C(\C)CCC(=O)N[C@@H](CC(=O)O)C(=O)O)C(=O)OC2 .
RESULT: 0.2

QUERY: Data request, read-out Ratio IC50/EC50, for COc1c(C)c2c(c(O)c1C/C=C(\C)CCC(=O)N[C@H](CCCNC(=N)N[N+](=O)[O-])C(=O)O)C(=O)OC2
RESULT: 0.7

QUERY: So what's the measured Ratio IC50/EC50 for this one? COc1c(C)c2c(c(O)c1C/C=C(\C)CCC(=O)N[C@H](C(=O)O)[C@@H](C)O)C(=O)OC2
RESULT: 0.7
